Measured values drawn from paper PMC5540273 for this set.

The following compounds are listed with their measured %Inh values.
Tested on: LRRK2
condition: concentration: 1 μM, replicates: in singlicate; n = 1;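 note: KINOMEscan kinase panel screen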
A number alone suffices; assume %.

Query CC(C)N1CCC(n2cnc(-c3ccc(F)cc3)c2-c2ccnc(N)n2)CC1 [SB-223132] yields %Inh of 28

Measured %Inh, `CN1c2ccc(-c3ccc(C(=O)NCCO)cc3)cc2-c2[nH]ncc2S1(=O)=O` : 73

For this compound ( Cl.Fc1ccccc1COc1ccc(Nc2ncnc3ccc(-c4nnc(C(F)(F)F)o4)cc23)cc1Cl [GW424170] ), measured %Inh is 0

Entry under test: Cl.Cn1ccc(-c2cccc(Nc3ccnc4cc(-c5nccs5)ccc34)c2)n1 [GW525701] . Its %Inh was 0

* * *

The entries below come with measured %Inh values attached.
Tested on: FGFR1
condition: concentration: 1 μM, replicates: in singlicate; n = 1
Lab book: enter the figure in %, no units written.

[
  {
    "compound": "COC(=O)c1cccc(NC(=O)NCCNc2ccnc(Nc3ccc(F)cc3)n2)c1 [GSK1379883]",
    "observable": "%Inh",
    "endpointValue": 0
  },
  {
    "compound": "Cl.Fc1ccccc1COc1ccc(Nc2ncnc3ccc(-c4nnc(C(F)(F)F)o4)cc23)cc1Cl [GW424170]",
    "observable": "%Inh",
    "endpointValue": 0
  },
  {
    "compound": "CC(C)N1CCC(n2cnc(-c3ccc(F)cc3)c2-c2ccnc(N)n2)CC1 [SB-223132]",
    "observable": "%Inh",
    "endpointValue": 22
  },
  {
    "compound": "Cl.c1ccc(Cn2ccc3cc(Nc4ncnc5ccccc45)ccc32)cc1 [GW275568]",
    "observable": "%Inh",
    "endpointValue": 0
  },
  {
    "compound": "COc1ccc(NC(=O)c2ccc(-c3cc(-c4nnc(C)o4)ccc3C)cc2)cc1 [GW595885]",
    "observable": "%Inh",
    "endpointValue": 0
  }
]

Record CCCc1ccc(S(=O)(=O)NC2CCN(c3ccnc(Nc4ccc(OC)cc4)n3)C2)cc1 (stereo not drawn) [GSK1379737] , field %Inh: 0

%Inh reading for CSc1ccc(NC2=C(c3ccccc3Cl)C(=O)NC2=O)cc1 [SB-342411] : 11

Value of measured %Inh for the entry Cc1ccc(NC(=O)c2cccc(C#N)c2)cc1-c1ccc(C(=O)Nc2ccncc2)cc1 [GSK1398463] : 10

Reported %Inh ( CNc1nccc(-c2c(-c3ccc(F)cc3)ncn2C2CCN(C)CC2)n1 [SB-222903] ) = 0

* * *

Test system: DYRK1A
condition: concentration: 1 μM, replicates: in singlicate; n = 1
Kindly return fulfilled if reported %Inh is no lower than 8%; return not fulfilled if it is lower.

[
  {
    "molecule": "COc1cc2ncnc(Nc3ccc(OCc4ccccc4Br)c(Cl)c3)c2cc1OC.Cl [GI261590]",
    "class": "fulfilled"
  }
]

State whether the measured %Inh reaches 8%, counting equality as reaching it, for Cl.Fc1ccccc1COc1ccc(Nc2ncnc3ccc(-c4nnc(C(F)(F)F)o4)cc23)cc1Cl [GW424170]
not fulfilled

Decide: %Inh of Fc1cccc(COc2ccc(Nc3ncnc4sc(-c5ccc[nH]5)cc34)cc2Cl)c1 [GW707818] >= 8%?
not fulfilled

Please indicate if the recorded %Inh for CSc1ccc(NC2=C(c3ccccc3Cl)C(=O)NC2=O)cc1 [SB-342411] meets or exceeds 8%.
fulfilled

Is the recorded value of %Inh equal to or greater than 8% for this molecule? `OCCOCCn1ccc2ncnc(Nc3ccc(Oc4cccc(Cl)c4)c(Cl)c3)c21`
not fulfilled

Does NC(=O)c1sc(-n2cnc3ccccc32)cc1OCc1ccccc1F [GSK1024306] have a reported %Inh of at least 8%?
not fulfilled

Please indicate if the recorded %Inh for CC(C)(C)OC(=O)NC1CCCN(c2cc(-c3ccc4c(N)n[nH]c4c3)nc(N)n2)C1 (stereo not drawn) [GSK2286096] meets or exceeds 8%.
fulfilled

* * *

Tested on: MARK4
condition: concentration: 1 μM, replicates: in singlicate; n = 1
observable: %Inh (%)
Numeric only. Scale: %

[
  {
    "smilesString": "Fc1cccc(COc2ccc(Nc3ncnc4nn5ccccc5c34)cc2Cl)c1",
    "valueUnit": "%",
    "%Inh": 0
  },
  {
    "smilesString": "Cc1ccc(NC(=O)c2cccc(C#N)c2)cc1-c1ccc(C(=O)Nc2ccncc2)cc1",
    "valueUnit": "%",
    "%Inh": 0
  },
  {
    "smilesString": "CC(=O)Nc1n[nH]c2ncc(-c3ccccc3)cc12",
    "valueUnit": "%",
    "%Inh": 8
  },
  {
    "smilesString": "COc1ccc(-c2oc3ncnc(N)c3c2-c2ccc(OC)cc2)cc1",
    "valueUnit": "%",
    "%Inh": 0
  },
  {
    "smilesString": "CSc1ccc(NC2=C(c3ccccc3Cl)C(=O)NC2=O)cc1",
    "valueUnit": "%",
    "%Inh": 13
  },
  {
    "smilesString": "CC(C)(C)c1ccc(-n2cnc3c(N)ncnc32)cc1",
    "valueUnit": "%",
    "%Inh": 0
  },
  {
    "smilesString": "O=C(Nc1ccccc1)Nc1ccc(Oc2ccc3nccn3n2)cc1",
    "valueUnit": "%",
    "%Inh": 7
  },
  {
    "smilesString": "COc1ccc(NC(=O)Nc2ccc(C)c(-c3ccc(C(=O)Nc4ccncc4)cc3)c2)cc1",
    "valueUnit": "%",
    "%Inh": 0
  }
]

// assay MARK4, entry `CCn1c(-c2ccncc2)nc2cnccc21` , %Inh value = 8

So the reported %Inh for `O=C(c1ccc(-c2cc(-c3c[nH]nc3-c3ccccn3)ccn2)cc1)N1CCCC1` , on MARK4, turned out to be 15

* * *

# Lookup of reported %Inh keyed by entry
Tested on: GRK1
condition: concentration: 1 μM, replicates: in singlicate; n = 1
The reply should be a number in %, with the unit left off.

[
  {
    "molecule": "CC(C)(C)c1ccc(-n2cnc3c(N)ncnc32)cc1",
    "endpointValue": 3
  },
  {
    "molecule": "COc1ccc(NC(=O)c2ccc(-c3cc(-c4nnc(C)o4)ccc3C)cc2)cc1",
    "endpointValue": 0
  },
  {
    "molecule": "Fc1cccc(COc2ccc(Nc3ncnc4cc[nH]c34)cc2Cl)c1",
    "endpointValue": 22
  },
  {
    "molecule": "FC(F)(F)c1cc(Nc2nccc(-c3c(-c4ccc(Cl)cc4)nn4ncccc34)n2)ccc1Cl",
    "endpointValue": 0
  }
]

Tested on GRK1: `CSc1nn2c(=O)cc(N3CCOCC3)nc2n1Cc1cccc(Cl)c1Cl` . Observed %Inh: 20

* * *

Test system: BLK
condition: concentration: 1 μM, replicates: in singlicate; n = 1
Below, each entry is listed alongside its reported %Inh.
Please give a number only; it is taken to be in %.

[
  {
    "compound": "CC(C)(C)OC(=O)NC1CCCN(c2cc(-c3ccc4c(N)n[nH]c4c3)nc(N)n2)C1 (stereo not shown) [GSK2286096]",
    "testSystem": "BLK",
    "endpointValue": 0
  },
  {
    "compound": "Cl.Fc1ccccc1COc1ccc(Nc2ncnc3ccc(-c4nnc(C(F)(F)F)o4)cc23)cc1Cl [GW424170]",
    "testSystem": "BLK",
    "endpointValue": 21
  },
  {
    "compound": "Cn1ccc2ncnc(Nc3ccc(Oc4cccc(Cl)c4)c(Cl)c3)c21",
    "testSystem": "BLK",
    "endpointValue": 14
  }
]

Lab note: measured %Inh of O=C(Nc1n[nH]c2nc(-c3ccco3)c(Br)cc12)c1ccc(CN2CCCC2)cc1.O=C(O)[C@H](O)[C@@H](O)C(=O)O [SB-742352] was 0

The recorded %Inh for COc1cc2ncnc(Nc3ccc(OCc4ccccc4Br)c(Cl)c3)c2cc1OC.Cl [GI261590] is 49

Measured %Inh, c1ccc(-c2ccc3c(-c4ccnc(Nc5ccc6c(c5)OCCO6)n4)cnn3n2)cc1 [GW818941] : 12

Please fill in: %Inh reported for COc1ccc(Nc2nccc(N3CCC(NC(=O)c4cccc(NC(C)=O)c4)C3)n2)cc1 (stereo not shown) [GSK1379732] = 40

* * *

System: CDK9
condition: concentration: 1 μM, replicates: in singlicate; n = 1
Quick reference: %Inh of the listed items.
Enter your answer as a number in %; do not include the unit.

[
  {
    "smilesString": "O=C(c1ccc(-c2cc(-c3c[nH]nc3-c3ccccn3)ccn2)cc1)N1CCCC1",
    "%Inh, %": 2
  }
]

Recorded result, `Cl.Cn1ccc(-c2cccc(Nc3ccnc4cc(-c5nccs5)ccc34)c2)n1` , %Inh: 0

%Inh reported for this molecule `COC(=O)c1c(-c2ccccc2)c2cc(Cl)ccc2c(=O)n1Cc1ccc(S(C)(=O)=O)cc1` : 7
